Reference source: patent US20090105266A1

- target.entity: mGluR5 (Homo sapiens, UniProt P41594)
- Construct: expressed in transfected cells
- Sequence (P41594 21-1180 isoform P41594-2 limits assumed): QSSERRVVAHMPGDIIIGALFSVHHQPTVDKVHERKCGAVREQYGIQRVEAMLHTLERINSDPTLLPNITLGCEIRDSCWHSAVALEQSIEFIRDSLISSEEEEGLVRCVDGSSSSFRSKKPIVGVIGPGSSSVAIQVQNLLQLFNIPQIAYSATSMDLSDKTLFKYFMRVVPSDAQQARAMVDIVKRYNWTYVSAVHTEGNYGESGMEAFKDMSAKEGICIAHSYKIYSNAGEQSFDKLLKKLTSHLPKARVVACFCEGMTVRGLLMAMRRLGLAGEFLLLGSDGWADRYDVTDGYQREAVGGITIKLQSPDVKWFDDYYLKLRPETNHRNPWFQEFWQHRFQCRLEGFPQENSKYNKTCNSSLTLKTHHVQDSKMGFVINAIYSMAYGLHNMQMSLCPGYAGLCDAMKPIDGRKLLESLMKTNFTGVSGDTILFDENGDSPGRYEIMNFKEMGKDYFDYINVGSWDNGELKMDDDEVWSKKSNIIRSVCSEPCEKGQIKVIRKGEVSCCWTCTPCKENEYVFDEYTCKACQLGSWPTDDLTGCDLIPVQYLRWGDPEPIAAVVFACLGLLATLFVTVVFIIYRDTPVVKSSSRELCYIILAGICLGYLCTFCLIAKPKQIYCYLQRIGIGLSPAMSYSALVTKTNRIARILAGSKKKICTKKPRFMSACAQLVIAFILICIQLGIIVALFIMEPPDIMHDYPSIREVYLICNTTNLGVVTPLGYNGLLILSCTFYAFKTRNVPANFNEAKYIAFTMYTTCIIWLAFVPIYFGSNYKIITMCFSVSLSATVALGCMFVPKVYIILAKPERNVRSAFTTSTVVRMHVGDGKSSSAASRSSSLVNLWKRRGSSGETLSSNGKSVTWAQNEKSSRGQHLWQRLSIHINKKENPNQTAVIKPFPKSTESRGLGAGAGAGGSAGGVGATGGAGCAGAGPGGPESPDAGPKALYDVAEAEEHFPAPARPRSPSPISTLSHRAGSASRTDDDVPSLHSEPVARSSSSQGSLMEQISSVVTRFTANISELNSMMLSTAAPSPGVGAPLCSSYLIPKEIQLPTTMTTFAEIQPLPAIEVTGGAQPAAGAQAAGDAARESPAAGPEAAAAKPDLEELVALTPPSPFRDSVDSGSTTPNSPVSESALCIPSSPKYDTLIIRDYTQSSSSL
- assay.protocol: inhibition of the glutamate (agonist) induced elevation of the inositol phosphate turnover
- Format: cell-based
- details: inhibition of glutamate induced elevation of inositol phosphate turnover at 0.1 μM
metric.name: inhibition at 0.1 µM (%)

Would you please look over these solved cases?
INSERT INTO assay_data (compound, target_entity, uom, assay_result) VALUES
  ('CCCn1c(-c2cnc(Nc3ccc(F)c(F)c3)c(Cl)c2)nc2cccc(Cl)c21 [Example 57]', 'mGluR5 (Homo sapiens, UniProt P41594)', '%', 93),
  ('CCCn1c(-c2cnc(Nc3ccc(CO)nc3)c(Cl)c2)nc2cccc(Cl)c21 [Example 75f]', 'mGluR5 (Homo sapiens, UniProt P41594)', '%', 92),
  ('CCCn1c(-c2ccc(Nc3ccc(C)cc3)c(Cl)c2)nc2cccc(Cl)c21 [Example 95]', 'mGluR5 (Homo sapiens, UniProt P41594)', '%', 63);

a. CCCn1c(-c2ccc(Nc3ccc(OC)cc3)nc2)nc2ccc(F)cc21 [Example 107]
b. CCCn1c(-c2ccc(Nc3ccc(Cl)cc3)nc2)nc2cccc(Cl)c21 [Example 101]
# compare inhibition at 0.1 µM for a vs b ; return the one with the smaller value # respond with the chosen item's label
a

###

- target.entity: mGluR5 (Homo sapiens, UniProt P41594)
- Construct: expressed in transfected cells
- assay.protocol: inhibition of the glutamate (agonist) induced elevation of the inositol phosphate turnover
- Type: cell-based
- details: inhibition of glutamate induced elevation of inositol phosphate turnover at 0.1 μM
metric.name: inhibition at 0.1 µM (%)

Would you please look over these solved cases?
INSERT INTO results (compound, uom, assay_result) VALUES
  ('CCCn1c(-c2cnc(Nc3ccc(NC(C)=O)nc3)c(Cl)c2)nc2cccc(Cl)c21 [Example 75c]', '%', 100),
  ('CCCn1c(-c2cnc(Nc3ccc(C)nc3)c(Cl)c2)nc2c(C)cccc21', '%', 97),
  ('CCCn1c(-c2ccc(Nc3ccc(C)cc3)nc2)nc2ccc(F)cc21', '%', 70);

A. CCCn1c(-c2cnc(Nc3ccc(C)cc3)c(Cl)c2)nc2ccc(F)cc21
B. CCCn1c(-c2cnc(Nc3c(F)cccc3F)c(Cl)c2)nc2cccc(Cl)c21
From the recorded data, which exceeds the other in inhibition at 0.1 µM: A or B ? # respond with the chosen item's label
A

###

- target.entity: mGluR5 (Homo sapiens, UniProt P41594)
- Construct: expressed in transfected cells
- assay.protocol: inhibition of the glutamate (agonist) induced elevation of the inositol phosphate turnover
- Assay type: cell-based
- details: inhibition of glutamate induced elevation of inositol phosphate turnover at 0.1 μM
metric.name: inhibition at 0.1 µM (%)

Would you please look over these solved cases?
INSERT INTO results (compound, metric_name, assay_result) VALUES
  ('CCCn1c(-c2cnc(Nc3ccc(OC)cc3)c(Cl)c2)nc2cccc(Cl)c21 [Example 75]', 'inhibition at 0.1 µM', 99),
  ('CCCn1c(-c2cnc(Nc3ccc(C)nc3)c(Cl)c2)nc2cc(Cl)ccc21 [Example 45]', 'inhibition at 0.1 µM', 91),
  ('CCCn1c(-c2cnc(Nc3ccc(OC)cc3)nc2)nc2cccc(Cl)c21 [Example 90]', 'inhibition at 0.1 µM', 102);

A. Cc1ccc(Nc2ccc(-c3nc4cccc(Cl)c4n3CC(C)C)cn2)cc1 [Example 108]
B. CCCn1c(-c2cnc(Nc3ccc(NC(C)=O)nc3)c(Cl)c2)nc2ccc(F)cc21 [Example 71]
From the recorded data, which exceeds the other in inhibition at 0.1 µM: A or B ? # respond with the chosen item's label
A
